# EXPERIMENTAL TARGET: RAF proto-oncogene serine/threonine-protein kinase (Homo sapiens) (UniProt P04049);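 note: values are the mean percent inhibition of CRAF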
# Sequence (P04049 whole entry): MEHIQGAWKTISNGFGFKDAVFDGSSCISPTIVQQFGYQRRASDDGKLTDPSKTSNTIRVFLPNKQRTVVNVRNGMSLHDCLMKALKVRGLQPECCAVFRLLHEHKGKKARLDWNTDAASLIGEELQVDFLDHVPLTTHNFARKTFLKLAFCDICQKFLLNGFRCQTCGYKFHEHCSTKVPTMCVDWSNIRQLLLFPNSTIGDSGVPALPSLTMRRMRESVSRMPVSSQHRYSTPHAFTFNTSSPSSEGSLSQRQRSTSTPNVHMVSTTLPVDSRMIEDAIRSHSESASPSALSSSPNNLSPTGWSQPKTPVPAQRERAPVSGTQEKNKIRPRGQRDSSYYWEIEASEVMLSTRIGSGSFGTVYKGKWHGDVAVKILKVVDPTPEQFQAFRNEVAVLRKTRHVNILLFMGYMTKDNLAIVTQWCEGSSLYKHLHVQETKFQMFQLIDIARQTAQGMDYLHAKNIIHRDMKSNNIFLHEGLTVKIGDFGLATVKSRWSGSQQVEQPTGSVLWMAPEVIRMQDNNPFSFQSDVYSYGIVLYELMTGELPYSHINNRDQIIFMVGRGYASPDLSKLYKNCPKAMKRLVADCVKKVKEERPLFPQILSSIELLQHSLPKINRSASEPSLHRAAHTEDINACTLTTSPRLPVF
# SETTINGS: at 1 µM
READOUT: inhibition (%)
Write it as a number; the unit % goes unstated.

Cc1ccc(C(=O)NC2CCC2)cc1-c1ccc(C(=O)NCC2CC2)cc1 = -1.36
CCS(=O)(=O)c1ccc(OC)c(Nc2ncc(-c3cccc(-c4ccccc4F)c3)o2)c1 = -8.29

// inhibition lookup, compound = Cc1nnc(-c2ccc(C)c(-c3ccc(C(=O)NCc4ccc(Cl)cc4)cc3)c2)o1 , result: -0.47

----------
# Tested on: Epidermal growth factor receptor (Homo sapiens), P00533 [L858R]
# Sequence (P00533 whole entry L858R): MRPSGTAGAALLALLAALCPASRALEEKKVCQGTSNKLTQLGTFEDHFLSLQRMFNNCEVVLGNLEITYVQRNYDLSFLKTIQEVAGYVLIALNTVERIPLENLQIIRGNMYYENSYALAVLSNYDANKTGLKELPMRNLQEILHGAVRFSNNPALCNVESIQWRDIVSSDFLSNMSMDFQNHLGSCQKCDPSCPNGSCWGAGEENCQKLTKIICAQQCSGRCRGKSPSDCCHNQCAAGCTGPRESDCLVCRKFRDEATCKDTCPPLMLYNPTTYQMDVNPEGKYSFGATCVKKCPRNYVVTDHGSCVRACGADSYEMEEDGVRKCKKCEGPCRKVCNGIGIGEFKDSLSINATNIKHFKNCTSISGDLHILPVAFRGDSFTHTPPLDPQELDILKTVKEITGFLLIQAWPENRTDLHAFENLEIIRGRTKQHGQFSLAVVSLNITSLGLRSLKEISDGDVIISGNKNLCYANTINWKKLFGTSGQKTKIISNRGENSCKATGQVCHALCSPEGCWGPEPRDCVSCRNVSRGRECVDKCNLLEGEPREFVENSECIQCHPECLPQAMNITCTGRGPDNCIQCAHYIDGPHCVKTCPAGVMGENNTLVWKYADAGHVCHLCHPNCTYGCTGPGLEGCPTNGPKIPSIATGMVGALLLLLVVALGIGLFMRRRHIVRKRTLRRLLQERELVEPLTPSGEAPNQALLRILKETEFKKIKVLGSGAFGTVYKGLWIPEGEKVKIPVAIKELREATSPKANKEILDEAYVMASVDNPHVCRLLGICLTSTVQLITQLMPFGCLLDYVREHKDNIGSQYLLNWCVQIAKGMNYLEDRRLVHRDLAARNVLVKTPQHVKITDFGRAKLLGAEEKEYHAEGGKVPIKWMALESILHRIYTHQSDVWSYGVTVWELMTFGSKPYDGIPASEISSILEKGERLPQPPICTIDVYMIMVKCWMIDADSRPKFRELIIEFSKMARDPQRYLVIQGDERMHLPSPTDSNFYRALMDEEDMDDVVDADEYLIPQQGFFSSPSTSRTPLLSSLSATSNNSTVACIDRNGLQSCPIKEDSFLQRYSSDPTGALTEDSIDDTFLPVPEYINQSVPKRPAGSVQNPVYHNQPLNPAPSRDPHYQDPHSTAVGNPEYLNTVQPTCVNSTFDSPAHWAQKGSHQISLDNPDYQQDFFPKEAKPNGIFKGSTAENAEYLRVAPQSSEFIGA
# SETTINGS: at 0.1 µM
READOUT: inhibition

These solved cases illustrate the format of a correct answer.
Clc1ccc(CNc2nccc(-c3cnn4ncccc34)n2)cc1 = 3.13%
COc1ccc2ncn(-c3cc(O[C@H](C)c4ccccc4Cl)c(C(N)=O)s3)c2c1 = 0.76%
C/C(Nc1ccc(S(N)(=O)=O)cc1)=C1/C(=O)Nc2ccccc21 = -0.73%
NCc1ccc(-n2c(-c3nonc3N)nc3cnccc32)cc1 = 3.13%

// moving on: another record for inhibition
// inhibition lookup, compound = O=C(Nc1ccc(Oc2ccc3[nH]c(NC(=O)c4ccccc4)nc3c2)cc1)Nc1cc(C(F)(F)F)ccc1F , result: 7.18%

----------
# System: Tyrosine-protein kinase ABL1 (Homo sapiens), P00519 [M351T]
# SETTINGS: at 1 µM
READOUT: inhibition (%)
Write it as a number; the unit % goes unstated.

These solved cases illustrate the format of a correct answer.
CCc1ccc(Oc2nccc(-c3c(-c4ccc(F)cc4)ncn3C3CCNCC3)n2)cc1 = 1.75
NC(=O)Cc1ccccc1Oc1nccc(-c2c(-c3ccc(F)cc3)ncn2C2CCNCC2)n1 = -1.6
O=C(Nc1n[nH]c2cc(-c3ccccc3)ccc12)C1CC1 = 68.6
Nc1nccc(-c2c(-c3ccc(F)cc3)ncn2C2CCC(O)CC2)n1 (stereo not given) = 36.6
Clc1ccc(CNc2nccc(-c3cnn4ncccc34)n2)cc1 = 3.11

// inhibition lookup, compound = COc1cccc(-n2cnc3c(N/N=C/c4ccncc4)ncnc32)c1 , result: 88.1

// inhibition lookup, compound = CN(C)CCOc1ccc(-c2cc(-c3ccc4c(c3)CCC4=NO)c(-c3ccncc3)o2)cc1 , result: 19.9

// inhibition lookup, compound = CCS(=O)(=O)c1ccc(OC)c(Nc2ncc(-c3ccccc3Cl)o2)c1 , result: 22

// inhibition lookup, compound = C#Cc1cccc(Nc2ncnc3ccc(OCCCCNCCS(C)(=O)=O)cc23)c1 , result: 19.2

// inhibition lookup, compound = COC(=O)Nc1nc2ccc(Sc3ccc(NC(=O)Nc4cc(C(F)(F)F)ccc4F)cc3)cc2[nH]1 , result: 70.2

----------
Below, each entry is listed alongside its reported inhibition.
# EXPERIMENTAL TARGET: Tyrosine-protein kinase Fgr (Homo sapiens);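 note: value reported as mean kinase inhibition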
# SETTINGS: at 1 µM

Cc1ccc(NC(=O)c2ccoc2)cc1-c1ccc(C(=O)NCC2CC2)cc1 = 3.07%
NS(=O)(=O)c1ccc(Nc2cc(-c3ccc(O)c(F)c3)n[nH]2)cc1 = 13.7%
Nc1nccc(-c2c(-c3ccc(F)cc3)ncn2C2CCC(O)CC2)n1 (stereo not given) = 16.5%

// moving on: another record for inhibition
// inhibition lookup, molecule = Fc1ccc(-c2ncn(C3CCNCC3)c2-c2ccnc(Oc3ccc(Oc4ccccc4)cc3)n2)cc1 , result: 4.83%

----------
# EXPERIMENTAL TARGET: Tyrosine-protein kinase JAK2 (Homo sapiens) (UniProt O60674);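 note: mean percent inhibition of JAK2 activity, from the GSK PKIS kinase panel screen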
# Sequence (O60674 whole entry): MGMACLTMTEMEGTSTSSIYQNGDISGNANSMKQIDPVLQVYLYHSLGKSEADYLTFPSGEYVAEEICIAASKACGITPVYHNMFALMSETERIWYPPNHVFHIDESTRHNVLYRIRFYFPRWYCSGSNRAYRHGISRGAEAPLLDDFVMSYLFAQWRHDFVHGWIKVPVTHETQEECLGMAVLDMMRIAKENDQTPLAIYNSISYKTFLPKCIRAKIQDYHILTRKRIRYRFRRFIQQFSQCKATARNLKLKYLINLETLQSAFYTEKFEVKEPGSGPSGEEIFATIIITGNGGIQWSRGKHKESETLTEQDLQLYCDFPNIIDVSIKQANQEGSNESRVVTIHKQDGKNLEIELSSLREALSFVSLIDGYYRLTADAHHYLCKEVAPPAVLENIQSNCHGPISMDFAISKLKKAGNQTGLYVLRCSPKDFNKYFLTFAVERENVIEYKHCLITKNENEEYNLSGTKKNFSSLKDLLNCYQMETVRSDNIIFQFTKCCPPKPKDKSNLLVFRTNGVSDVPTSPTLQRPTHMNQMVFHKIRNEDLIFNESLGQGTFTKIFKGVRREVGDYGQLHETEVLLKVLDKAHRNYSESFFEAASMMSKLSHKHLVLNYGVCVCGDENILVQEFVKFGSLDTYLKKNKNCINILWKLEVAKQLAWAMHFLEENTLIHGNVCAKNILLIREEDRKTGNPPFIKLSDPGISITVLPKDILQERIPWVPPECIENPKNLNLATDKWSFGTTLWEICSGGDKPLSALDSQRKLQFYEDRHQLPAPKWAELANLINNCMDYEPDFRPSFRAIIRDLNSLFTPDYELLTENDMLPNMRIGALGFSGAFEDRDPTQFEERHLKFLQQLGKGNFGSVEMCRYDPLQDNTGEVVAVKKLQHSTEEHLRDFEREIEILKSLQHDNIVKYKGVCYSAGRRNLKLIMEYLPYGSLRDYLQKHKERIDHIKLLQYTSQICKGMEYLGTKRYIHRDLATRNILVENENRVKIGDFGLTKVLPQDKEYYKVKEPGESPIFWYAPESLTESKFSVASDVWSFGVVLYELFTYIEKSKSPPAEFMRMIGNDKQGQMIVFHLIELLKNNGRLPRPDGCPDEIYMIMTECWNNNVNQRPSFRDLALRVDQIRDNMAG
# SETTINGS: at 0.1 µM
Below, each entry is listed alongside its reported inhibition.
Write it as a number; the unit % goes unstated.

// inhibition lookup, compound = CN(C)CCCNc1nccc(-c2c(-c3ccc(F)cc3)nn3cc(C(F)(F)F)ccc23)n1 , result: 0.65

// inhibition lookup, compound = CCc1cccc(CC)c1/C=C/c1cncc(C(=O)NC)c1 , result: 1.99

// inhibition lookup, compound = c1ccc(-c2n[nH]cc2-c2ccnc(-c3ccc(OCCN4CCOCC4)cc3)c2)nc1 , result: 0.47

// inhibition lookup, compound = C#Cc1cccc(Nc2ncnc3ccc(OCCCCNCCS(C)(=O)=O)cc23)c1 , result: 1

----------
# EXPERIMENTAL TARGET: Cyclin-dependent kinase 6 (Homo sapiens);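 note: mean percent inhibition of the kinase bound to its cyclin partner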
# SETTINGS: at 1 µM
READOUT: inhibition (%)
Write it as a number; the unit % goes unstated.

These solved cases illustrate the format of a correct answer.
Fc1ccc(-c2ncn(C3CCNCC3)c2-c2ccnc(Oc3ccc(Oc4ccccc4)cc3)n2)cc1 = -6.24
COc1cc(Nc2ncc3c(C)nc(-c4cccc(C(F)(F)F)c4)n3n2)cc(OC)c1OC = 7.16
NS(=O)(=O)c1ccc(Nc2cc(-c3ccc(O)c(F)c3)n[nH]2)cc1 = 70.9
Cc1nnc(-c2ccc(C)c(-c3ccc(C(=O)NCc4ccc(Cl)cc4)cc3)c2)o1 = -4.88
Fc1ccc(-c2ncn(C3CCNCC3)c2-c2ccnc(Oc3ccc(F)c(F)c3)n2)cc1 = -0.06

// inhibition lookup, compound = CCS(=O)(=O)c1ccc(OC)c(Nc2ncc(-c3cccc(-c4ccccc4F)c3)o2)c1 , result: 1.94

// inhibition lookup, compound = c1ccc(Oc2ccc(Nc3ncc(-c4ccccc4)o3)cc2)cc1 , result: 3.56

// inhibition lookup, compound = COc1ccc2cc(-c3c(-c4ccncc4)nc(-c4ccc([S+](C)[O-])cc4C)n3C)ccc2c1 (stereo unspecified) , result: 4.45

// inhibition lookup, compound = Cc1ccc(NC(=O)c2ccoc2)cc1-c1ccc(C(=O)NCC2CC2)cc1 , result: 0.19

----------
# EXPERIMENTAL TARGET: Dual specificity protein kinase CLK3 (Homo sapiens) (UniProt P49761)
# Sequence (P49761 whole entry, looked up): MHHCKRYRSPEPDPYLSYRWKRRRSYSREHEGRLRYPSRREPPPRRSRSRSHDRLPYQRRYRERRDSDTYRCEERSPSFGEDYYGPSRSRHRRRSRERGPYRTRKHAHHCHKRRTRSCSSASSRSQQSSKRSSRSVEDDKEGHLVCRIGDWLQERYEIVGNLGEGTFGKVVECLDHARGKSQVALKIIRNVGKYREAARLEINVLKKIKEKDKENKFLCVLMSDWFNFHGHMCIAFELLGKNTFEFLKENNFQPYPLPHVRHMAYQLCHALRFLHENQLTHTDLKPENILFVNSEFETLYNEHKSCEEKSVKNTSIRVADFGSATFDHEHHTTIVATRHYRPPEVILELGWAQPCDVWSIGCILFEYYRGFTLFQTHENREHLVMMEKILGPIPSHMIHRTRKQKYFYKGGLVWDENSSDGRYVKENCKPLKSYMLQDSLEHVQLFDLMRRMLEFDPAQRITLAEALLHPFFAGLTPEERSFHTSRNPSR
# SETTINGS: at 0.1 µM
# Description: GSK_PKIS: CLK3 mean inhibition at 0.1 uM [Nanosyn]
Below, each entry is listed alongside its reported inhibition.
Write it as a number; the unit % goes unstated.

COc1ccc(C2=C(N3CCc4ccccc43)C(=O)NC2=O)cc1 = 2.88
C/C(Nc1ccc(S(N)(=O)=O)cc1)=C1/C(=O)Nc2ccccc21 = -0.03
NS(=O)(=O)c1ccc(Nc2cc(-c3ccc(O)c(F)c3)n[nH]2)cc1 = -0.37
CN(C)c1ccc2c(c1)/C(=C/Nc1ccc(S(N)(=O)=O)cc1)C(=O)N2 = 0.66
O=C1NC(=O)C(c2cccc(Cl)c2)=C1Nc1ccc(Cl)c(C(=O)O)c1 = 1.12
COC(=O)Nc1nc2ccc(Sc3ccc(NC(=O)Nc4cc(C(F)(F)F)ccc4F)cc3)cc2[nH]1 = 0.48
Fc1ccc(-c2ncn(C3CCNCC3)c2-c2ccnc(Oc3ccc4c(c3)OCO4)n2)cc1 = 0.88
c1ccc(Oc2ccc(Nc3ncc(-c4ccccc4)o3)cc2)cc1 = 0.6
CN1CCN(CCCNc2nc3ccc(Oc4ccc(NC(=O)Nc5cc(C(F)(F)F)ccc5F)cc4)cc3[nH]2)CC1 = -3.87
CCc1ccc(Oc2nccc(-c3c(-c4ccc(F)cc4)ncn3C3CCNCC3)n2)cc1 = 0.96

// inhibition lookup, compound = O=C(Nc1n[nH]c2nc(-c3ccc(O)cc3)c(Br)cc12)C1CC1 , result: 2.91

// inhibition lookup, compound = O=C(Nc1n[nH]c2cc(-c3cc(F)ccc3F)ccc12)C1CC1 , result: 0.11

// inhibition lookup, compound = Nc1nccc(-c2c(-c3ccc(F)cc3)ncn2C2CCC(O)CC2)n1 (stereo unspecified) , result: 1.02

// inhibition lookup, compound = NS(=O)(=O)c1ccc(N/N=C2\C(=O)Nc3ccc(-c4cnco4)cc32)cc1 , result: -3.12

----------
# EXPERIMENTAL TARGET: Serine/threonine-protein kinase MRCK beta (Homo sapiens) (UniProt Q9Y5S2);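 note: values are mean percent inhibition of MRCKB, screened as part of the GSK PKIS kinase inhibitor set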
# SETTINGS: at 0.1 µM
READOUT: inhibition (%)
Write it as a number; the unit % goes unstated.

These solved cases illustrate the format of a correct answer.
O=C(Nc1n[nH]c2nc(-c3ccco3)ccc12)C1CC1 = 0.63
NC(=O)c1cc(-c2ccncc2)cc(-c2ccccc2)c1N = 1.07
NC(=O)c1cc(-c2ccc(F)cc2)cc(-c2ccncc2)c1N = -1.54
O=C(NCC1CC1)c1ccc(-c2cccc(C(=O)NC3CC3)c2)cc1 = 1.52

// inhibition lookup, molecule = NCc1ccc(-n2c(-c3nonc3N)nc3cnccc32)cc1 , result: 59.8

// inhibition lookup, molecule = C#Cc1cccc(Nc2ncnc3ccc(OCCCCNCCS(C)(=O)=O)cc23)c1 , result: 0.55

// inhibition lookup, molecule = COc1ccc(C2=C(N3CCc4ccccc43)C(=O)NC2=O)cc1 , result: 1.1

// inhibition lookup, molecule = Fc1ccc(-c2ncn(C3CCNCC3)c2-c2ccnc(Oc3ccc(F)c(F)c3)n2)cc1 , result: -0.68

// inhibition lookup, molecule = Cc1ccc(C(=O)NC(C)C)cc1-c1ccc(C(=O)NCC2CC2)cc1 , result: 0.15

// inhibition lookup, molecule = FC(F)(F)c1cccc(Nc2nccc(-c3cnn4nc(-c5ccccc5)ccc34)n2)c1 , result: 0.14

// inhibition lookup, molecule = CN1CCN(CCCNc2nc3ccc(Oc4ccc(NC(=O)Nc5cc(C(F)(F)F)ccc5F)cc4)cc3[nH]2)CC1 , result: 2.45

// inhibition lookup, molecule = CN(C)CCCNc1nccc(-c2c(-c3ccc(F)cc3)nn3cc(C(F)(F)F)ccc23)n1 , result: 0.48

// inhibition lookup, molecule = C[C@@H](Oc1cc(-n2cnc3ccc(OCC4CCN(C)CC4)cc32)sc1C(N)=O)c1ccccc1Cl , result: 1.18
